Parameter: IC50. Scope: all listed entries.
molecular target: human TDO (TDO-expressing HEK293 cells) (Homo sapiens, UniProt P48775); construct: expressed in transfected cells; assay: Cell based kynurenine assay, TDO-expressing HEK293 cell clones; settings: TDO-expressing HEK293 cells, 24 hours incubation; geometric mean; read-out: HEK293 TDO Kynurenine GMean IC50 (μM) (Cellular Assay)
Sequence (P48775 whole entry): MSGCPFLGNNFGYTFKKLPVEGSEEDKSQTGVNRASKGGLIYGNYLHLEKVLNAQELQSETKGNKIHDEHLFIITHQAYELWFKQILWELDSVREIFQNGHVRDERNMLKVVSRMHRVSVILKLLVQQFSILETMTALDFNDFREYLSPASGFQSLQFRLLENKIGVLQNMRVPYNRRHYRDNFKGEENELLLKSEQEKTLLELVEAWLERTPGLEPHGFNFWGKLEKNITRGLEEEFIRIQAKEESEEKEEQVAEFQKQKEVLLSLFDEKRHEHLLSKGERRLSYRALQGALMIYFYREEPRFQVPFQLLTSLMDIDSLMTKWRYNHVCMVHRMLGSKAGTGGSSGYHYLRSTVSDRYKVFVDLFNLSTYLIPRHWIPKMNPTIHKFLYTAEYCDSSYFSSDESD

The following molecules have reported results that may help.
CC(C)(C(O)c1cc(Cl)cc2cn[nH]c12)N1CCCCC1 (centres unmarked) [Compound P-0216]    > 10 µM
CCS(=O)(=O)N1CCC(C(C)(C)C(O)c2cc(Cl)cc3cn[nH]c23)CC1 (centres unmarked) [Compound P-0304]    0.0001 to 10 µM
CC(C)(C)OC(=O)N1CCC(C(C)(C)C(O)c2c(F)c(Cl)cc3cn[nH]c23)CC1 (centres unmarked) [Compound P-0370]    0.0001 to 10 µM
CC(C)(C1CCN(C(=O)c2c(F)cccc2Cl)CC1)C(O)c1cc(Cl)cc2cn[nH]c12 (centres unmarked) [Compound P-0369]    0.0001 to 10 µM
CC(C)(C)C(O)c1c(F)c(Cl)c(F)c2cn[nH]c12 (centres unmarked) [Compound P-0248]    > 10 µM
CNS(=O)(=O)N1CCC(C(F)(F)C(O)c2cc(Cl)cc3cn[nH]c23)CC1 (centres unmarked) [Compound P-0330]    0.0001 to 10 µM

# input Looking for the measured IC50 of NC(=O)N1CCC2(CC1)CC(O)(c1cc(Cl)cc3cn[nH]c13)C2 [Compound P-0346] , can you help?
# output 0.0001 to 10 µM

# input Subsequent entry: CNC(=O)N1CCC(C2(C(O)c3cc(Cl)cc4cn[nH]c34)CC2)CC1 (centres unmarked) [Compound P-0134]
# output 0.0001 to 10 µM
